Let's look at some compounds and their measured growth.
- Tested on: DU-145 prostate
- test-name: NCI-60 one-dose screen, 48 h (100 = growth as untreated, 0 = no growth, -100 = all killed)
- condition-summary: 10 µM unless noted
Compounds without any hit were thinned out: in the full panel of roughly 83,000, 20% have a hit.

compound: C=C1C(=O)O[C@H]2[C@H]1CC/C(C=Nc1c(N)cc(F)cc1Br)=C\CC[C@@]1(C)O[C@@H]21
growth (%): 55.2

compound: N#CC1C(c2ccc(Cl)cc2)=Nc2c(c(-c3ccccc3)nn2-c2ccccc2)C12C(=O)Nc1ccc(Cl)cc12 (stereo not drawn)
growth (%): 74

compound: COc1ccc(/C=C/C(=O)C(CC2CCC2)C(=O)/C=C/c2ccc(OC)c(OC)c2)cc1OC
growth (%): -23

compound: O=C(/C(=C/c1ccc([N+](=O)[O-])cc1)SCc1ccc(Cl)cc1)c1ccc(F)cc1
growth (%): 86.3

compound: CCOC(=O)c1c(C)nc2c(c1N)/C(=C/c1cccs1)C(=O)N2Cc1ccccc1
growth (%): 62

compound: Cc1nn(-c2ccc(-c3ccc(OC(F)(F)F)cc3)cc2)c2nc(-c3ccccc3)nc(N)c12
growth (%): 104

compound: N#Cc1nc(-c2ccccc2)oc1S(=O)(=O)NCC(c1ccc(Cl)cc1)N1CCCCC1 (stereo not drawn)
growth (%): 84.4

compound: CCc1ccc(OCc2ccccc2C(=O)Nc2ccc3nc(C)cc(N)c3c2)cc1
growth (%): -96.3

compound: Cn1c2ccccc2c2c(OC(=O)c3ccccc3)c3c(nc21)-c1ccccc1C3
growth (%): 104

compound: CN(C)CSc1nc2ccccc2s1
growth (%): 105

compound: C=C(C)[C@@H]1CC[C@]2(C(=O)O)CC[C@]3(C)[C@H](CC[C@@H]4[C@@]5(C)C[C@@H](CC#Cc6ccc(Cl)cc6)C(=O)C(C)(C)[C@@H]5CC[C@]43C)[C@@H]12
growth (%): 39.4

compound: COc1cc(NC(=O)COc2cc(C)nc3ccc(OC)cc23)cc(OC)c1
growth (%): 97.8

compound: Cc1ccc(C2CC(c3ccc(Nc4nc(NCCO)nc(NCCO)n4)cc3)=NN2c2ccc(Cl)cc2)cc1 (stereo not drawn)
growth (%): 62.6

compound: NS(=O)(=O)c1ccc(-n2ncc(NC(=O)Nc3ccc(S(=O)(=O)Nc4nccs4)cc3)c2-c2ccccc2)cc1
growth (%): 109

compound: COc1ccc(Nc2cc(NC(=O)CNc3cc(OC)c(Cl)c(OC)c3Cl)ncn2)cc1
growth (%): 98.8

compound: NC(N)=NC(N)=Nc1cc2ccccc2c2ccccc12
growth (%): 56.3

compound: Oc1ccc(CNNc2ccnc3c(O)cccc23)c2cccnc12
growth (%): 43.4

compound: C[C@@H]1C(=O)[C@@H]2C[C@@H](O)[C@@H](O)C[C@]2(C)[C@H]2CC[C@@]3(C)C(=C12)CC[C@@H]3[C@@](C)(O)[C@H](O)CCC(C)(C)O
growth (%): 99.2

These measurements were taken from PubChem BioAssay (NCI).
